Reported IC50 against High affinity 3',5'-cyclic-AMP phosphodiesterase 7A (Homo sapiens, UniProt Q13946), gathered from multiple publications, appears below.
Reported Property: IC50 (nM)

{"Compound": "Cn1nc(-c2ccc(Cl)c(S(N)(=O)=O)c2)s/c1=N\\C1CCCCC1", "Study Target": "High affinity 3',5'-cyclic-AMP phosphodiesterase 7A (Homo sapiens, UniProt Q13946)", "Reported Property": "IC50", "Comparative Sign": "=", "Assay Value": 70}
{"Compound": "Cn1nc(-c2ccc(-c3ccccn3)s2)s/c1=N\\C1CCCCC1", "Study Target": "High affinity 3',5'-cyclic-AMP phosphodiesterase 7A (Homo sapiens, UniProt Q13946)", "Reported Property": "IC50", "Comparative Sign": "=", "Assay Value": 320}
{"Compound": "O=C1Nc2c(Cl)cc(-c3ccc4[nH]ccc4c3)cc2C2(CCCCC2)N1", "Study Target": "High affinity 3',5'-cyclic-AMP phosphodiesterase 7A (Homo sapiens, UniProt Q13946)", "Reported Property": "IC50", "Comparative Sign": "=", "Assay Value": 12}
{"Compound": "Cn1nc(-c2ccc(S(C)(=O)=O)cc2)s/c1=N\\c1cccc(C(=O)O)c1", "Study Target": "High affinity 3',5'-cyclic-AMP phosphodiesterase 7A (Homo sapiens, UniProt Q13946)", "Reported Property": "IC50", "Comparative Sign": "=", "Assay Value": 150}
{"Compound": "Cn1nc(-c2ccc(C(=O)Nc3cccc4cccnc34)cc2)s/c1=N\\C1CCCCC1", "Study Target": "High affinity 3',5'-cyclic-AMP phosphodiesterase 7A (Homo sapiens, UniProt Q13946)", "Reported Property": "IC50", "Comparative Sign": "=", "Assay Value": 93}
{"Compound": "Cn1nc(-c2ccc(Cl)cc2)s/c1=N\\[C@@H]1CCCC[C@@H]1O (relative stereo)", "Study Target": "High affinity 3',5'-cyclic-AMP phosphodiesterase 7A (Homo sapiens, UniProt Q13946)", "Reported Property": "IC50", "Comparative Sign": "=", "Assay Value": 1200}
{"Compound": "Cn1nc(-c2cccc(Cl)c2)s/c1=N\\C1CCCCC1", "Study Target": "High affinity 3',5'-cyclic-AMP phosphodiesterase 7A (Homo sapiens, UniProt Q13946)", "Reported Property": "IC50", "Comparative Sign": "=", "Assay Value": 700}
{"Compound": "Cn1nc(-c2cnccn2)s/c1=N\\C1CCCCC1", "Study Target": "High affinity 3',5'-cyclic-AMP phosphodiesterase 7A (Homo sapiens, UniProt Q13946)", "Reported Property": "IC50", "Comparative Sign": "=", "Assay Value": 470}
{"Compound": "O=C1Nc2c(Cl)cc(-c3ccc(C(=O)N4CCN(CCN5CCOCC5)CC4)cc3)cc2C2(CCCCC2)N1", "Study Target": "High affinity 3',5'-cyclic-AMP phosphodiesterase 7A (Homo sapiens, UniProt Q13946)", "Reported Property": "IC50", "Comparative Sign": "=", "Assay Value": 15}
{"Compound": "Cn1nc(-c2ccc(Cl)cc2)s/c1=N\\c1ccc(F)c(C(=O)O)c1", "Study Target": "High affinity 3',5'-cyclic-AMP phosphodiesterase 7A (Homo sapiens, UniProt Q13946)", "Reported Property": "IC50", "Comparative Sign": "=", "Assay Value": 130}
{"Compound": "Cc1c(C(=O)Nc2ccc(F)cc2F)sc2ncnc(N3CCC(C)CC3)c12", "Study Target": "High affinity 3',5'-cyclic-AMP phosphodiesterase 7A (Homo sapiens, UniProt Q13946)", "Reported Property": "IC50", "Comparative Sign": ">", "Assay Value": 2000}
{"Compound": "COC(=O)c1cccc(-c2nn(C)/c(=N/C3CCCCC3)s2)c1", "Study Target": "High affinity 3',5'-cyclic-AMP phosphodiesterase 7A (Homo sapiens, UniProt Q13946)", "Reported Property": "IC50", "Comparative Sign": "=", "Assay Value": 150}
{"Compound": "Cn1nc(-c2ccc(Cl)cc2)s/c1=N\\[C@@H]1CCCC[C@H]1O (relative stereo)", "Study Target": "High affinity 3',5'-cyclic-AMP phosphodiesterase 7A (Homo sapiens, UniProt Q13946)", "Reported Property": "IC50", "Comparative Sign": "=", "Assay Value": 450}
{"Compound": "Cn1nc(-c2cc(Cl)cc(Cl)c2)s/c1=N\\C1CCCCC1", "Study Target": "High affinity 3',5'-cyclic-AMP phosphodiesterase 7A (Homo sapiens, UniProt Q13946)", "Reported Property": "IC50", "Comparative Sign": "=", "Assay Value": 1300}
{"Compound": "O=C1Nc2c(Cl)cc(-c3ccc(C(=O)N4CCN(CC(=O)N5CCOCC5)CC4)cc3)cc2C2(CCCCC2)N1", "Study Target": "High affinity 3',5'-cyclic-AMP phosphodiesterase 7A (Homo sapiens, UniProt Q13946)", "Reported Property": "IC50", "Comparative Sign": "=", "Assay Value": 13}
{"Compound": "Cn1nc(-c2cccnc2)s/c1=N\\C1CCCCC1", "Study Target": "High affinity 3',5'-cyclic-AMP phosphodiesterase 7A (Homo sapiens, UniProt Q13946)", "Reported Property": "IC50", "Comparative Sign": "=", "Assay Value": 340}
{"Compound": "[2H]C1([2H])Oc2ccc([C@@H]3c4[nH]c5ccccc5c4C[C@@H]4C(=O)N(N)CC(=O)N34)cc2O1", "Study Target": "High affinity 3',5'-cyclic-AMP phosphodiesterase 7A (Homo sapiens, UniProt Q13946)", "Reported Property": "IC50", "Comparative Sign": ">", "Assay Value": 10000}
{"Compound": "Cn1nc(-c2ccc(S(C)(=O)=O)cc2)s/c1=N\\[C@@H]1CCCC[C@H]1O (relative stereo)", "Study Target": "High affinity 3',5'-cyclic-AMP phosphodiesterase 7A (Homo sapiens, UniProt Q13946)", "Reported Property": "IC50", "Comparative Sign": "=", "Assay Value": 280}
